# assay.method.text: chemical genetic growth profiling, strain panel (AID 1159580);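 note: tested at 20 µM; growth read once vehicle control cultures reached saturation at 30 °C; 1 = growth at the plate median or of vehicle wells; lower values mean less growth of the strain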
# study.conditions: S. cerevisiae deletion strains, growth OD, locus YDL074C, strain BRE1, hits give low values
Out of some 5,500 compounds screened, about 2,000 (36%) were called active. Roughly 18% stayed inconclusive and do not appear here. Some of the results follow.
Please go through the items and note down their normalized growth.
Provide a numeric answer; units are not to be included.

Identify the reported normalized growth for the following entry. COc1ccc(C(=O)c2ccccc2)c(O)c1
0.691

Recall and state the measured normalized growth for COc1ccc(-c2c(O)c3cc4c(c(CC=C(C)C)c3oc2=O)OC(C)(C)CC4)cc1 .
1.03

In one line, give reported normalized growth of the entry Cc1cc(=O)c2c(O)c(C)c(O)cc2o1 .
0.973

Retrieve normalized growth measured for COc1ccc2c(c1)[C@@]1(C)CCC(=O)C[C@H]1CC2 and print it.
1.01

Complete the entry with normalized growth for COc1c(CC=C(C)C)c2c(c3oc(=O)c(-c4ccc(OC(C)=O)cc4)c(OC(C)=O)c13)C=CC(C)(C)O2
1.08

Give the value of normalized growth reported for the following: CN=C(NC#N)NCCSCc1nc[nH]c1C
1.01

Quote normalized growth reported for Cc1ccc2c(c1)CC[C@H]1CC(=O)CC[C@]21C please.
0.971

Please report the measured normalized growth for CC(C)N(C(=O)CCl)c1ccccc1
1.05

In one line, give reported normalized growth of the entry COC(=O)c1c(Cl)c(Cl)c(C(=O)OC)c(Cl)c1Cl .
0.927

Report normalized growth, nothing else, for this compound: Cc1cc(=O)c2c(O)cc(O)c(C)c2o1
1.02

Specify reported normalized growth for the compound shown: COc1cc(O)c2c(=O)cc(C)oc2c1CC=C(C)C
0.748

For the compound CCCCOc1ccc(CC(=O)NO)cc1 , give its measured normalized growth value.
0.964
